This section presents binders with their documented Kd values.
- TEST TARGET: T1, PH domain of the Tfb1 subunit of TFIIH (Tfb1PH; residues 1-115) (S. cerevisiae, UniProt P32776 1-115)
- T1 sequence (looked up): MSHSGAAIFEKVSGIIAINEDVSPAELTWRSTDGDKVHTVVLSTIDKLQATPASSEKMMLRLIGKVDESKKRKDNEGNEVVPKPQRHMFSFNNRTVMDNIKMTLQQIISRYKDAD
- ASSAY PROCEDURE: ITC
Number only, in nM; omit the unit.

{"BINDER": "FYQDEEDDLSDIDWEEVSLDGSL (peptide, UniProt Q06665 41-63, looked up) [Rad34 residues 41-63]", "VALUE": 11}

Quick one: Kd of TDDSVEEIQSSEEDYDSEEFEDVTDGNEVAGVEDISVEIK (domain or fragment, S. cerevisiae, UniProt P14736 76-115, looked up) [Rad4 residues 76-115 (acidic segment from the N-terminal region of Rad4)] ?
50

Where do the numbers come from? From paper PMC3575800.
